Tested on: PC-3
assay overview: NCI tumour cell line growth inhibition, 48 h
The source made the active and inactive calls. Cut-off read from the data, not from the text of the source: active = GI50 up to about 1.1 µM and inactive = higher.
Write down one outcome, taken from yes (1) (active), no (0) (inactive)

Worked examples follow.
[[record]]
compound = "Cc1cn(C2CC(O)C(CO[Si](C)(C)C(C)(C)C)OC2OC(C)C)c(=O)[nH]c1=O (stereo unspecified)"
answer_label = "no (0)"

[[record]]
compound = "CN(C)c1ccc(Cc2cc3c(O)ccc(O)c3cc(Cc3ccc(N(C)C)cc3)c2=O)cc1"
answer_label = "no (0)"

[[record]]
compound = "CCOP(=O)(/C=C/n1ccc(N)nc1=O)OCC"
answer_label = "no (0)"

[[record]]
compound = "O=C1CCCNn2c(nc3ncccc3c2=O)N1"
answer_label = "no (0)"

[[record]]
compound = "Cc1cc2c(=Cc3ccc(N(C)C)cc3)c3ccccc3n2[n+]1C"
answer_label = "yes (1)"

[[record]]
compound = "Cc1cn(CCCCOC(=O)NC(CCCNC(N)=O)C(=O)O)c(=O)[nH]c1=O (stereo unspecified)"
answer_label = "no (0)"


Q) Record lookup: outcome of this test for C=C1C(=O)O[C@H]2[C@H]1[C@H](OC(=O)/C(C)=C\C)C[C@]1(CO1)[C@@H]1[C@H](OC(C)=O)C=C(C)[C@]21O [EUPAROTIN ACETATE] ?
A) no (0)

Q) I'd appreciate the recorded outcome for NC(=S)Nc1nc(=S)[nH]c2[nH]ccc12 from this test.
A) no (0)

Q) // param item: Cc1ccc2c(c1)[nH]c(=S)n2C=C1C(=O)CC(C)(C)CC1=O ; yields the recorded call
A) no (0)

Q) Hey, what did the test say about COC(=O)[C@H](COC(=O)/C=C/c1ccc(OC(C)=O)c(OC(C)=O)c1)NC(=O)/C=C/c1ccc(OC(C)=O)c(OC(C)=O)c1 ?
A) no (0)

Q) Which outcome was entered for the compound COc1cc2c(/C=C3/C(=O)Nc4ccc(O)cc43)c(Cl)[nH]c2cc1C in this test?
A) yes (1)

Q) Given CC1=[N+]([O-])C2(CCCC2)N(O)C1(C)C , state the outcome it received in this test.
A) no (0)

Q) Recorded test call requested for CC(C)(C)/C(O)=C\c1nc2cc(F)c(F)cc2[nH]c1=O
A) no (0)

Q) Short answer needed: outcome of this test for C[N+](C)(C)CC1CCCC1=O (stereo unspecified) ?
A) no (0)

Q) Each compound tested received a call. Report the one for Nc1nc(Cl)cc(NCC2(CO)CC(CCCCc3ccccc3)C2)n1 (stereo unspecified) .
A) no (0)
